# Species on record: Rattus norvegicus
# assay-overview: Relative bioavailability of prodrugs in rat
# Assay type: ADME, organism-based
# run-parameters: in vivo
# note: exactly 40 is not below, so it is not satisfied; use satisfied for Relative F% strictly under it

Hello, I'm reviewing records and need to know if Relative F% of `CC(=O)OCC(=O)OCO/C(=C1/C(=O)N(C(N)=O)c2cc(Cl)c(F)cc21)c1cccs1` is below 40. Could you check?
satisfied

Criterion: Relative F% strictly below 40. Is it met by `NC(=O)N1C(=O)/C(=C(/OC(=O)/C=C/C(=O)O)c2cccs2)c2cc(F)c(Cl)cc21` ?
not satisfied

Determine if CCCC(OCc1ccccc1)C(=O)OCO/C(=C1/C(=O)N(C(N)=O)c2cc(Cl)c(F)cc21)c1cccs1 (centres undefined) shows Relative F% strictly lower than 40.
not satisfied

# check: Relative F% < 40 for CC(O)C(=O)OCO/C(=C1/C(=O)N(C(N)=O)c2cc(Cl)c(F)cc21)c1cccs1 (centres undefined)
not satisfied

Item `CCN(CC)C(=O)OCC(=O)OCO/C(=C1/C(=O)N(C(N)=O)c2cc(Cl)c(F)cc21)c1cccs1` : Relative F% beneath 40, strictly?
satisfied

Does the reported Relative F% of the following molecule sit strictly below 40? `CCCCC(=O)O/C(=C1\C(=O)N(C(N)=O)c2cc(Cl)c(F)cc21)c1cccs1`
satisfied

Identify whether the molecule `NC(=O)N1C(=O)/C(=C(/OCOC(=O)COCc2ccccc2)c2cccs2)c2cc(F)c(Cl)cc21` records Relative F% below 40.
not satisfied

Decide: Relative F% of `COCC(=O)OCO/C(=C1/C(=O)N(C(N)=O)c2cc(Cl)c(F)cc21)c1cccs1` strictly below 40?
not satisfied

Given the entry `COCC(=O)O/C(=C1\C(=O)N(C(N)=O)c2cc(Cl)c(F)cc21)c1cccs1` , would its reported Relative F% be below 40?
satisfied

* * *

# assay-overview: Aqueous solubility
# Format: physicochemical
# run-parameters: aqueous medium (not further specified); read-out: S
Task for the reader: assign each of the following compounds its reported solubility.
Write the number in µg/mL without appending the unit.

Quick note, solubility for CC(O)C(=O)OCO/C(=C1/C(=O)N(C(N)=O)c2cc(Cl)c(F)cc21)c1cccs1 (stereo not drawn) landed at 0.38

Looking up `C[C@@H](N)C(=O)OCO/C(=C1/C(=O)N(C(N)=O)c2cc(Cl)c(F)cc21)c1cccs1.Cc1ccc(S(=O)(=O)O)cc1` , I see its solubility listed as 150

Entry `NC(=O)N1C(=O)/C(=C(/OC(=O)/C=C/C(=O)O)c2cccs2)c2cc(F)c(Cl)cc21` , solubility reported as 2.5

* * *

# assay-overview: Aqueous solubility
# Format: physicochemical
# run-parameters: aqueous medium (not further specified); read-out: S
experimental-readout: solubility

Record `NC(=O)N1C(=O)/C(=C(\OC(=O)c2cccnc2)c2cccs2)c2cc(F)c(Cl)cc21` . Reported solubility: < 0.06 µg/mL

Record `NC(=O)N1C(=O)/C(=C(\OC(=O)c2ccncc2)c2cccs2)c2cc(F)c(Cl)cc21` , field solubility: < 0.07 µg/mL

get_value(item= `NC(=O)N1C(=O)/C(=C(\OC(=O)c2ccccn2)c2cccs2)c2cc(F)c(Cl)cc21` , readout=solubility) returns < 0.06 µg/mL

* * *

# Species: Canis familiaris
# assay-overview: Relative bioavailability of oxindole prodrugs in dog
# Format: ADME, organism-based, Canis lupus familiaris
# run-parameters: in vivo
experimental-readout: Relative bioavailability
Answer as a number with no unit attached.

The molecule `NC(=O)N1C(=O)C(=C(O)c2cccs2)c2cc(F)c(Cl)cc21` showed Relative bioavailability equal to 100

Notebook: CCOC(=O)OC(C)O/C(=C1/C(=O)N(C(N)=O)c2cc(Cl)c(F)cc21)c1cccs1 (stereo not given) , Relative bioavailability read as 1.4

Entry CCC(OCc1ccccc1)C(=O)OCO/C(=C1/C(=O)N(C(N)=O)c2cc(Cl)c(F)cc21)c1cccs1 (stereo not given) — recorded Relative bioavailability = 12

Measured Relative bioavailability of `NC(=O)N1C(=O)/C(=C(/OC(=O)/C=C/C(=O)O)c2cccs2)c2cc(F)c(Cl)cc21` : 91

Entry under test: `C[C@@H](N)C(=O)OCO/C(=C1/C(=O)N(C(N)=O)c2cc(Cl)c(F)cc21)c1cccs1.Cc1ccc(S(=O)(=O)O)cc1` . Its Relative bioavailability was 78

Relative bioavailability reading for `Cc1ccc(S(=O)(=O)O)cc1.NCC(=O)OCO/C(=C1/C(=O)N(C(N)=O)c2cc(Cl)c(F)cc21)c1cccs1` : 78

Reported Relative bioavailability ( CC(O)C(=O)OCO/C(=C1/C(=O)N(C(N)=O)c2cc(Cl)c(F)cc21)c1cccs1 (stereo not given) ) = 22

The recorded Relative bioavailability for `CCOC(=O)/C=C/C(=O)O/C(=C1/C(=O)N(C(N)=O)c2cc(Cl)c(F)cc21)c1cccs1` is 6.4

The recorded Relative bioavailability for CCCC(OCc1ccccc1)C(=O)OCO/C(=C1/C(=O)N(C(N)=O)c2cc(Cl)c(F)cc21)c1cccs1 (stereo not given) is 7.5

Summary for this molecule, COCC(=O)OC(C)O/C(=C1/C(=O)N(C(N)=O)c2cc(Cl)c(F)cc21)c1cccs1 (stereo not given) : Relative bioavailability is 5.2

* * *

Give Relative F% for every item shown.
# Organism: Rattus norvegicus
# assay-overview: Relative bioavailability of prodrugs in rat
# Assay type: ADME, organism-based
# run-parameters: in vivo
A bare number is all that is needed in reply.

Data point: NC(=O)N1C(=O)C(=C(O)c2cccs2)c2cc(F)c(Cl)cc21 [ILONIDAP] ; Relative F% = 100

For `CCN(CC)C(=O)COC(=O)CCC(=O)O/C(=C1/C(=O)N(C(N)=O)c2cc(Cl)c(F)cc21)c1cccs1` the compound record lists Relative F% as 16

For `CC(=O)OCC(=O)O/C(=C1\C(=O)N(C(N)=O)c2cc(Cl)c(F)cc21)c1cccs1` the compound record lists Relative F% as 6.6

For reference, reported Relative F% for Cl.Cl.NCCCCC(N)C(=O)OCO/C(=C1/C(=O)N(C(N)=O)c2cc(Cl)c(F)cc21)c1cccs1 (stereo not given) stands at 49

The value of Relative F% measured for the compound `NC(=O)N1C(=O)/C(=C(\OC(=O)c2ccncc2)c2cccs2)c2cc(F)c(Cl)cc21` turned out to be 2.2

* * *

I'd appreciate it if you could supply solubility values for the items below.
# assay-overview: Aqueous solubility
# Assay type: physicochemical
# run-parameters: aqueous medium (not further specified); read-out: S

`CCCCC(=O)O/C(=C1\C(=O)N(C(N)=O)c2cc(Cl)c(F)cc21)c1cccs1` yielded solubility of 0.013 µg/mL

The reported solubility of the compound `NC(=O)N1C(=O)/C(=C(\OC(=O)c2ccccn2)c2cccs2)c2cc(F)c(Cl)cc21` was < 0.06 µg/mL

For record `CC(=O)OCC(=O)OCO/C(=C1/C(=O)N(C(N)=O)c2cc(Cl)c(F)cc21)c1cccs1` the listed solubility is < 0.02 µg/mL

GET /value?item= `NC(=O)N1C(=O)/C(=C(\OC(=O)c2cccc(C(=O)O)c2)c2cccs2)c2cc(F)c(Cl)cc21` &field=solubility returns 0.58 µg/mL

For `NC(=O)N1C(=O)/C(=C(\OC(=O)c2cccnc2)c2cccs2)c2cc(F)c(Cl)cc21` the compound record lists solubility as < 0.06 µg/mL

// sample `CCOC(=O)/C=C/C(=O)O/C(=C1/C(=O)N(C(N)=O)c2cc(Cl)c(F)cc21)c1cccs1` , its solubility was < 0.02 µg/mL

// sample `O=C(c1cccs1)c1c2cc(F)c(Cl)cc2n2c(=O)[nH]c(=O)oc12` , its solubility was 17 µg/mL

Entry under test: `CCC(=O)O/C(=C1\C(=O)N(C(N)=O)c2cc(Cl)c(F)cc21)c1cccs1` . Its solubility was 0.003 µg/mL

# solubility of `NC(=O)N1C(=O)C(=C(O)c2cccs2)c2cc(F)c(Cl)cc21` = 40 µg/mL

* * *

# assay-overview: Aqueous solubility
# Type: physicochemical
# run-parameters: aqueous medium (not further specified); read-out: S
Lab note: compare solubility against 0.06 µg/mL. Equal or greater, write 1. Smaller, write -1.

Is solubility at least 0.06 µg/mL? Consider COCC(=O)OC(C)O/C(=C1/C(=O)N(C(N)=O)c2cc(Cl)c(F)cc21)c1cccs1 (stereo not drawn)
1

Threshold query (solubility >= 0.06 µg/mL) on `NC(=O)N1C(=O)/C(=C(\OC(=O)c2ccncc2)c2cccs2)c2cc(F)c(Cl)cc21`
1

API: above_or_equal(metric=solubility, cutoff=0.06 µg/mL) for item `NC(=O)N1C(=O)/C(=C(/OC(=O)/C=C/C(=O)O)c2cccs2)c2cc(F)c(Cl)cc21`
1

Dear colleague, could you confirm whether `CC(=O)O/C(=C1\C(=O)N(C(N)=O)c2cc(Cl)c(F)cc21)c1cccs1` has solubility at or above 0.06 µg/mL?
-1

Reported solubility reaches at least 0.06 µg/mL for `CCOC(=O)O/C(=C1\C(=O)N(C(N)=O)c2cc(Cl)c(F)cc21)c1cccs1` ?
-1

For this molecule, is measured solubility 0.06 µg/mL or higher? CC(=O)OC(C)O/C(=C1/C(=O)N(C(N)=O)c2cc(Cl)c(F)cc21)c1cccs1 (stereo not drawn)
-1

Determine whether this molecule has solubility no lower than 0.06 µg/mL: CCOC(=O)OC(C)O/C(=C1/C(=O)N(C(N)=O)c2cc(Cl)c(F)cc21)c1cccs1 (stereo not drawn)
-1
